Test system: Rattus norvegicus
Experiment: Tested in vivo for anti-hypercholesterolaemic activity in male Sprague-Dawley rat.
Format: functional
Readout Label: Change (%)
Report the value in % with no unit label.

Return value of Change for input CC(O)(CC(=O)OC(C)(C)C)CC(O)CSc1nc(-c2ccc(Cl)cc2)c(-c2ccc(Cl)cc2)[nH]1 (stereo unspecified) , no commentary.
-53

Dear colleague, please send me the reported Change for "Cc1cccc(-c2nc(SC[C@H]3C[C@@](C)(O)CC(=O)O3)[nH]c2-c2cccc(C)c2)c1.Cc1cccc(-c2nc(SC[C@H]3C[C@](C)(O)CC(=O)O3)[nH]c2-c2cccc(C)c2)c1" when you can.
-64

Answer with the recorded Change of "CCOC(CSc1nc(-c2ccccc2)c(-c2ccccc2)[nH]1)OCC" only.
-37

Indicate the recorded Change value for this compound: "c1ccc(-c2nc(SCC3CCCCC3)[nH]c2-c2ccccc2)cc1"
-92

Please look at this compound and report its Change: c1ccc(-c2nc(SCC3CCCCO3)[nH]c2-c2ccccc2)cc1 (stereo unspecified)
-38

Identify Change associated with the compound CC1=CC(=O)OC(CSc2nc(-c3ccccc3)c(-c3ccccc3)[nH]2)C1 (stereo unspecified)
27
